# reported pIC50; entries follow
# System: MCF-7 cells
# assayNotes: In vitro cell activity assay (MCF-7, insulin stimulation, ELISA-One)
# Format: cell-based
# assaySetup: Homo sapiens, MCF7, compound 2 hours in serum-free media, then 10 μg/ml insulin 30 min
pIC50: −log10 of the molar value.

Here is how some compounds turned out for pIC50.
compound	endpointResult
COc1ncc(-c2ccc3ncc(OCCN4CCOCC4)c(=O)n3c2)cc1NS(=O)(=O)c1ccccc1Cl [Compound 10]	7.00 to 7.30
COc1ncc(-c2ccc3ncc(OCCN4CCOCC4)c(=O)n3c2)cc1NS(=O)(=O)c1ccc(F)cc1C [Compound 8]	7.00 to 7.30
COc1ncc(-c2ccc3ncc(OCCN4CCOCC4)c(=O)n3c2)cc1NS(=O)(=O)c1c(Cl)cccc1Cl [Compound 63]	≥ 7.30
COc1ncc(-c2ccc3ncc(OCCN(C)C)c(=O)n3c2)cc1NS(=O)(=O)c1ccc(F)cc1F [Compound 43]	7.00 to 7.30

Exercise: What value of measured pIC50 is listed for COc1ncc(-c2ccc3ncc(OC4CNC4)c(=O)n3c2)cc1NS(=O)(=O)c1ccc(F)cc1Cl [Compound 30] ?
Solution: < 6.60

Exercise: What value of measured pIC50 is listed for COc1ncc(-c2ccc3ncc(OCC(C)N4CCOCC4)c(=O)n3c2)cc1NS(=O)(=O)c1ccc(F)cc1Cl (stereo not shown) [Compound 66] ?
Solution: ≥ 7.30

Exercise: What value of measured pIC50 is listed for COc1ncc(-c2ccc3ncc(OCCN(C)C)c(=O)n3c2)cc1NS(=O)(=O)c1sc(C)nc1C [Compound 35] ?
Solution: ≥ 7.30

Exercise: What value of measured pIC50 is listed for COc1ncc(-c2ccc3ncc(OCC4CCCN4C)c(=O)n3c2)cc1NS(=O)(=O)c1sc(C)nc1C (stereo not shown) [Compound 34] ?
Solution: 7.00 to 7.30

Exercise: What value of measured pIC50 is listed for COc1ncc(-c2ccc3ncc(OCC4(N)CC4)c(=O)n3c2)cc1NS(=O)(=O)c1ccc(F)cc1Cl [Compound 32] ?
Solution: 7.00 to 7.30

Exercise: What value of measured pIC50 is listed for COc1ncc(-c2ccc3ncc(OC4CCN(C)C4)c(=O)n3c2)cc1NS(=O)(=O)c1ccc(F)cc1Cl (stereo not shown) [Compound 85] ?
Solution: 7.00 to 7.30

Exercise: What value of measured pIC50 is listed for COc1ncc(-c2ccc3ncc(OCCN4CCN(C)CC4)c(=O)n3c2)cc1NS(=O)(=O)c1sc(C)nc1C [Compound 4] ?
Solution: 7.00 to 7.30

Exercise: What value of measured pIC50 is listed for COc1ncc(-c2ccc3ncc(OCC4CCNCC4)c(=O)n3c2)cc1NS(=O)(=O)c1ccc(F)cc1Cl [Compound 76] ?
Solution: < 6.60

Exercise: What value of measured pIC50 is listed for COc1ncc(-c2ccc3ncc(OCCN4CCOCC4)c(=O)n3c2)cc1NS(=O)(=O)c1ccc(C)cc1C [Compound 7] ?
Solution: ≥ 7.30

Exercise: What value of measured pIC50 is listed for COc1ncc(-c2ccc3ncc(OCCN4CCCC4=O)c(=O)n3c2)cc1NS(=O)(=O)c1sc(C)nc1C [Compound 21] ?
Solution: ≥ 7.30
